Measured on: NLRP3 (Homo sapiens)
Construct: Seed THP-1 cells (5.56*10^5 cells/mL) containing 1.0 ug/mL LPS; endogenous in cells
Method notes: THP-1 LPS/nigericin IL1β release (pyroptosis assay), HTRF
Condition description: NLRP3 inhibitory activity; THP-1 cells, 1.0 ug/mL LPS, compound 3 hrs, nigericin 5 uM 1 hr, IL1β in supernatant
Reported metric: IC50

Suppose we examine the molecule CO[C@@H]1COc2c(S(=O)(=O)NC(=O)Nc3c4c(cc(C)c3-c3ccn5nccc5c3)CCC4)cnn2C1 ; what IC50 value has been reported? ≤ 100 nM

Suppose we examine the molecule Cc1cc2c(c(NC(=O)NS(=O)(=O)c3cnc4c(c3)N(C3CC3)CCO4)c1-c1ccn3nccc3c1)CCC2 ; what IC50 value has been reported? ≤ 100 nM

Suppose we examine the molecule O=C(Nc1c(-c2ccn3ncnc3c2)ccc2c1CCC2)NS(=O)(=O)c1cc2n(n1)CCO[C@@H]2C1CC1 (single isomer, unassigned) ; what IC50 value has been reported? 100 to 500 nM

Suppose we examine the molecule Cc1cc2c(c(NC(=O)NS(=O)(=O)c3cnn4c3COCC4)c1-c1ccnc3[nH]ccc13)CCC2 ; what IC50 value has been reported? 100 to 500 nM

----------
Measured on: NLRP3 (Homo sapiens, UniProt Q96P20)
Construct: Seed THP-1 cells (5.56*10^5 cells/mL) containing 1.0 ug/mL LPS; endogenous in cells
Sequence (Q96P20 whole entry): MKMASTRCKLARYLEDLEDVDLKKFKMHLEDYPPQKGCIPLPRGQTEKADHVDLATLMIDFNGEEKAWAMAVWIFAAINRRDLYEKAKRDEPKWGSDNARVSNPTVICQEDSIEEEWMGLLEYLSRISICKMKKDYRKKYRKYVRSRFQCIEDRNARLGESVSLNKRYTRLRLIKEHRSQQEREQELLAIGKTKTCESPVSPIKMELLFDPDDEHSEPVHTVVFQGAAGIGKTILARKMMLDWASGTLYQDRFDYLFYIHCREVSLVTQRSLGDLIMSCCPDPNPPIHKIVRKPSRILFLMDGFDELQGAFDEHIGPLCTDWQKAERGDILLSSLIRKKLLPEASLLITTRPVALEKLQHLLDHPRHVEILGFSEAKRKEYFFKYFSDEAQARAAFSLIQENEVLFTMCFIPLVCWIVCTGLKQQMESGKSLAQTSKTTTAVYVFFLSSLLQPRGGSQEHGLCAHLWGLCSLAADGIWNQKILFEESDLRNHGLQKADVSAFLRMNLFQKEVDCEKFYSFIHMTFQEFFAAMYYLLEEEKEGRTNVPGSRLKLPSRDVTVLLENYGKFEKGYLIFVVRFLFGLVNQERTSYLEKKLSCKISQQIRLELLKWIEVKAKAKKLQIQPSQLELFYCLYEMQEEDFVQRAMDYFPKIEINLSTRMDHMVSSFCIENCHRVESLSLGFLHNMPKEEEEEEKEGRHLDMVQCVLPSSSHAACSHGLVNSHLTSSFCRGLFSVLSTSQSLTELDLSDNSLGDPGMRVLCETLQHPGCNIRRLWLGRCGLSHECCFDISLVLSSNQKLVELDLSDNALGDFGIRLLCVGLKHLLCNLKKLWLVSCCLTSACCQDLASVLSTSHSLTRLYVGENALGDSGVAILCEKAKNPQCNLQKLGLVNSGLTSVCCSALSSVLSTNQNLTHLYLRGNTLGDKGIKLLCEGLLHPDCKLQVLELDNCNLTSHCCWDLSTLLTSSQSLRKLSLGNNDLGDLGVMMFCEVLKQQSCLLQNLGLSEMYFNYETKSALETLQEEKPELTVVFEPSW
Method notes: THP-1 LPS/nigericin IL1β release (pyroptosis assay), HTRF
Condition description: NLRP3 inhibitory activity; THP-1 cells, 1.0 ug/mL LPS, compound 3 hrs, nigericin 5 uM 1 hr, IL1β in supernatant
Reported metric: IC50

// solved cases for IC50 follow
O=C(Nc1c(-c2ccc3ncnn3c2)ccc2c1CCC2)NS(=O)(=O)c1cc2n(n1)CCO[C@@H]2C1CC1 (single isomer, unassigned): 100 to 500 nM
Cc1cc2c(c(NC(=O)NS(=O)(=O)c3cc4n(n3)CCOC4)c1-c1ccn3nccc3c1)CCC2: ≤ 100 nM

Suppose we examine the compound O=C(Nc1c(-c2ccc3ncnn3c2)ccc2c1CCC2)NS(=O)(=O)c1cc2n(n1)CCO[C@H]2C1CC1 (single isomer, unassigned) ; what IC50 value has been reported? 100 to 500 nM

Suppose we examine the compound O=C(Nc1c(-c2ccc3cncn3c2)ccc2c1CCC2)NS(=O)(=O)c1cc2n(n1)CCO[C@@H]2C1CC1 (single isomer, unassigned) ; what IC50 value has been reported? 100 to 500 nM

Suppose we examine the compound O=C(Nc1c(-c2ccn3cncc3c2)ccc2c1CCC2)NS(=O)(=O)c1cc2n(n1)CCO[C@@H]2C1CC1 (single isomer, unassigned) ; what IC50 value has been reported? 100 to 500 nM

----------
Measured on: NLRP3 (Homo sapiens)
Construct: Seed THP-1 cells (5.56*10^5 cells/mL) containing 1.0 ug/mL LPS; endogenous in cells
Method notes: THP-1 LPS/nigericin IL1β release (pyroptosis assay), HTRF
Condition description: NLRP3 inhibitory activity; THP-1 cells, 1.0 ug/mL LPS, compound 3 hrs, nigericin 5 uM 1 hr, IL1β in supernatant
pIC50: −log10 of the molar value.
Reported metric: pIC50

O=C(Nc1c(-c2ccc3ccnn3c2)ccc2c1CCC2)NS(=O)(=O)c1cc2n(n1)CCO[C@H]2C1CC1 (single isomer, unassigned): 6.30 to 7.00
O=C(Nc1c(-c2ccn3ccnc3c2)ccc2c1CCC2)NS(=O)(=O)c1cc2n(n1)CCO[C@@H]2C1CC1 (single isomer, unassigned): 6.30 to 7.00
Cc1cc2c(c(NC(=O)NS(=O)(=O)c3cc4n(n3)CCO[C@@H]4C3CC3)c1-c1ccn3nccc3c1)CCC2 (single isomer, unassigned): ≥ 7.00
CO[C@@H]1COc2c(S(=O)(=O)NC(=O)Nc3c4c(cc(C)c3-c3ccc5nccn5c3)CCC4)cnn2C1: ≥ 7.00
Cc1cc2c(c(NC(=O)NS(=O)(=O)c3cn4c(n3)C(C3CC3)OCC4)c1-c1ccnc3[nH]ccc13)CCC2 (stereo not drawn): 6.00 to 6.30

Proceed to the following item.
API: value(readout= pIC50, system= NLRP3 (Homo sapiens), query= Cc1cc2c(c(NC(=O)NS(=O)(=O)c3cc4n(n3)CCOC4(C)C)c1-c1ccn3nccc3c1)CCC2 ) ≥ 7.00

Each recorded value in this set is attributed to patent US12338255B2.
